- ASSAY SYSTEM: human Claudin 18.2 (CLDN18.2) (human, UniProt P56856-2 1-261)
- ASSAY PROTOCOL: cell-based or functional assay
MEASURED PARAMETER: CDC EC50, human serum, CHO-CLDN18.2 (nM)
Number only, in nM; omit the unit.

// below: answered binders
BINDER	MEASURED PARAMETER	RESULT UNIT	ENDPOINT VALUE
364D1A7-VL-S32V (antibody, human IgG1, kappa, V domains shown, chimeric human IgG1, PTM site removed; also called 364D1A7-VL-32V) VH: DVQLVESGGGLVQPGGSRKLSCAASGFTFSSFGMHWVRQAPEKGLEWVAYISSGSGSIYYADTVKGRFTLSRDNPKNTLFLQMTSLRSEDTAIYYCATSYYYGNALEYWGQGTSVTVSS VL: DVVLTQSPSSLTVTEGEKVSMSCKSSQSLFNVGNQKNYLTWYQQKPGQTPTLLIYWASTRKSGVPDRFTGSGSGTDFTLTINTVQAEDLAVYYCQNVYSYPLTFGAGTKLDLKR	CDC EC50, human serum, CHO-CLDN18.2	nM	1.49
413H9F8-cp1 (antibody, V domains shown, humanized IgG; constant regions not specified) VH: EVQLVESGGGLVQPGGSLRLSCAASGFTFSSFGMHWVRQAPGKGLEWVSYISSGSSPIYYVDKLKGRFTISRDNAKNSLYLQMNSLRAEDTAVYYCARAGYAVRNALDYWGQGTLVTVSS VL: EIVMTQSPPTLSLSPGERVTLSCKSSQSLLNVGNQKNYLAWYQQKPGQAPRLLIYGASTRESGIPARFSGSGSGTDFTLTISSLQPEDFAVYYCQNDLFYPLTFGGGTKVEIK	CDC EC50, human serum, CHO-CLDN18.2	nM	1.66
282A12F3 (T62A) (antibody, human IgG1, kappa, V domains shown, chimeric human IgG1, PTM site removed; also called 282A12F3-VH-NSA (T62A); 282A12 (T62A)) VH: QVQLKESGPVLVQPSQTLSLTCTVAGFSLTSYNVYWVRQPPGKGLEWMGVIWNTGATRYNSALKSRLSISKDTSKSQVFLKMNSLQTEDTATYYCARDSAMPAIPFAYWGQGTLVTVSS VL: DIVMTQSPSSLAVSAGETVTINCKSSQSLFGSVRQKNYLAWYQQKPGQSPKLLIYLASTRESGVPDRFIGSGSGTDFTLTISSVQAEDLAKYYCQQYYDIPWTFGGGTKLELKR	CDC EC50, human serum, CHO-CLDN18.2	nM	10.4

# CDC EC50, human serum, CHO-CLDN18.2 lookup, item 364D1A7-H3L1 (antibody, V domains shown, humanized IgG; constant regions not specified) VH: EVQLVESGGGLVQPGGSLRLSCAASGFTFSSFGMHWVRQAPGKGLEWVAYISSGSGSIYYADTVKGRFTLSRDNPKNSLYLQMNSLRAEDTAVYYCATSYYYGNALEYWGQGTTVTVSS VL: DIVMTQSPDSLAVSLGERATINCKSSQSLFNVGNQKNYLTWYQQKPGQPPKLLIYWASTRKSGVPDRFSGSGSGTDFTLTISSLQAEDVAVYYCQNVYSYPLTFGGGTKVEIK 1.28

Please report the recorded CDC EC50, human serum, CHO-CLDN18.2 for 413H9F8-H2L2 (antibody, V domains shown, humanized IgG; constant regions not specified) VH: EVQLVESGGGLVQPGGSLRLSCAASGFTFSSFGMHWVRQAPGKGLEWVAYISSGSSPIYYVDKLKGRFTISRDNAKNSLYLQMNSLRAEDTAVYYCARAGYAVRNALDYWGQGTLVTVSS VL: DIVMTQSPDSLAVSLGERATINCKSSQSLLNVGNQKNYLAWYQQKPGQPPKLLIYGASTRESGVPDRFSGSGSGTDFTLTISSLQAEDVAVYFCQNDLFYPLTFGGGTKVEIK . 0.84
